test: in vivo; conditions: female, C57BL/6J, mouse, ip, 50 mg/kg, plasma concentration, Mouse 1
property.name: concentration at 24 h (nM)
Respond numerically; units are nM and should not be typed.

Problem: Tell me the measured concentration at 24 h of CCO[C@@H]1OC(=O)C[C@@H]1NC(=O)[C@@H]1CCCN1C(=O)[C@@H](NC(=O)c1ccc(N)c(Cl)c1)C(C)(C)C , please.
Solution: 8

====

assay: in vivo; settings: female, C57BL/6J, mouse, ip, 50 mg/kg, MRTinf in plasma, Mouse 2
property.name: MRT inf

Problem: Which MRT inf value is on record for CCO[C@@H]1OC(=O)C[C@@H]1NC(=O)[C@@H]1CCCN1C(=O)[C@@H](NC(=O)c1ccc(N)c(Cl)c1)C(C)(C)C [VX-765] ?
Solution: 5.64 h

These entries and their values trace back to paper PMC7486940.
